Quick reference: EC50 of the listed items.
target: Alpha-1A adrenergic receptor (Oryctolagus cuniculus, UniProt O02824); experiment: Agonist activity at alpha1A adrenoreceptor in Oryctolagus cuniculus (rabbit) urethra
Sequence (O02824 whole entry): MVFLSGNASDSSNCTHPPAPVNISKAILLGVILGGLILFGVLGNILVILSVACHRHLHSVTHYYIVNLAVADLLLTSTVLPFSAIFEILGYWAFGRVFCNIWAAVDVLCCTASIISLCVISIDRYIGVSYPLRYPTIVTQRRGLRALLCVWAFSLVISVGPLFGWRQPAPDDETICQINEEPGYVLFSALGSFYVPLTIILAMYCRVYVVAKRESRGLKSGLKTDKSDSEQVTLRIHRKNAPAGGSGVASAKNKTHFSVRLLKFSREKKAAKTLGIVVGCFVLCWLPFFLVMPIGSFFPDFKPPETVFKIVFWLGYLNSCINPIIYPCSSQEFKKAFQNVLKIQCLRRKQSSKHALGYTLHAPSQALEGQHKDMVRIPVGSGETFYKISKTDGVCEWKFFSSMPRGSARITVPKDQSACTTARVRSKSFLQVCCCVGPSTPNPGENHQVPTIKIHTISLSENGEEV
Write down the numeric answer in µM and omit the unit.

// known answers, use as guide
compound="COc1ccc(OC)c(C(O)CN)c1 (stereo unspecified) [DESGLYMIDODRINE]" experimental_result=7.08
compound=CCS(=O)(=O)Nc1cccc2c1CCC[C@H]2c1c[nH]cn1 experimental_result=0.17
compound="Nc1cccc2c1CCCC2c1c[nH]cn1 (stereo unspecified)" experimental_result=0.275
compound="O=S(=O)(Nc1cccc2c1CCCC2c1c[nH]cn1)C1CC1 (stereo unspecified)" experimental_result=5.62
compound="CC(C)S(=O)(=O)Nc1cccc2c1CCCC2c1c[nH]cn1 (stereo unspecified)" experimental_result=6.76

With those in mind, consider the next compound.
Name the reported EC50 value associated with the compound CC(N)C(O)c1ccccc1 (stereo unspecified) [PHENYLPROPANOLAMINE]
234

These data points were gathered from ChEMBL document CHEMBL3046380.
